- protocol: pharmacokinetic study, single i.p. dose, plasma by LC/MS/MS
- Format: in vivo, CD-1 mice
- study conditions: male, CD-1, mouse, plasma, ip, 15 mg/kg, 15 mg/kg i.p., at 15 min post injection; read-out: maximal blood concentration (Cmax)
measurement type: Cmax (µg/mL)

> print(dat)
                                   compound  numeric.value
1  CN1CC(=Cc2ccccn2)C(=O)C(=Cc2ccccn2)C1 [UBS109]          0.432

###

- protocol: pharmacokinetic study, single i.p. dose, plasma by LC/MS/MS
- Assay type: in vivo, CD-1 mice
- study conditions: male, CD-1, mouse, plasma, ip; 15 mg/kg i.p.; read-out: time of maximal blood concentration post injection (converted)
measurement type: Tmax (min)

> print(dat)
                         smiles.notation  numeric.value
1  CN1CC(=Cc2ccccn2)C(=O)C(=Cc2ccccn2)C1             15
